Source: patent US8624002B2

Assay: Accelerated stability screening monitored by SEC
Assay type: physicochemical
Details: SEC, 7 days storage at 50° C.
PARAMETER: Aggregate (%)
State just the number; it will be interpreted in %.

Lookup: # query: Aggregate (%) of entry Hu2B5.8: humanized 2B5-8.0; VH SEQ ID NO 74, VL SEQ ID NO 75 (antibody, V domains shown) VH: EVQLVQSGAEVKKPGASVKVSCKASGYTFTKYWLGWVRQAPGQGLEWMGDIYPGYDYTHYNEKFKDRVTLTTDTSTSTAYMELSSLRSDDTAVYYCARSDGSSTYWGQGTLVTVSS VL: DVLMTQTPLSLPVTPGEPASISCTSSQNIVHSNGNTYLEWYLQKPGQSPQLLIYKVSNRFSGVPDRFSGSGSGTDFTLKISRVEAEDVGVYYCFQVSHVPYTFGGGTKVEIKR
Found: 2.5144
